Recorded Bliss excess, one value per entry.
# Tested on: HLE (Hepatocellular Carcinoma);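 note: after 72 h of two-drug dosing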
# Protocol Description: Bliss excess, mean over the matrix (fraction); higher = more synergy
In your answer, state the number alone without any accompanying words.

// known answers, use as guide
INSERT INTO assay_data (compound, observed_measurement) VALUES
  ('Cc1c2c(nn1C)CSCc1cc(n(C)n1)CSc1cc(c3ccccc3c1)OCCCc1c(C(=O)O)n(C)c3c-2c(Cl)ccc13 [AZD5991] + CC1(C)CCC(CN2CCN(c3ccc(C(=O)NS(=O)(=O)c4ccc(NCC5CCOCC5)c([N+](=O)[O-])c4)c(Oc4cnc5[nH]ccc5c4)c3)CC2)=C(c2ccc(Cl)cc2)C1 [Venetoclax] (first compound max 1 µM, 7x7, partner max 1 µM)', -0.0061),
  ('CN(C)CCCOc1ccc(-c2ccc3ncc4c(c3c2)n(C2CCOCC2)c(=O)n4C)cn1 [AZD0156] + O=C(c1cc(Cc2n[nH]c(=O)c3ccccc23)ccc1F)N1CCN(C(=O)C2CC2)CC1 [Olaparib] (first compound max 3 µM, partner max 3 µM)', -0.0129),
  ('CC(=O)c1c(C)c2cnc(Nc3ccc(N4CCNCC4)cn3)nc2n(C2CCCC2)c1=O [Palbociclib] + CC1(C)CCC(CN2CCN(c3ccc(C(=O)NS(=O)(=O)c4ccc(NCC5CCOCC5)c([N+](=O)[O-])c4)c(Oc4cnc5[nH]ccc5c4)c3)CC2)=C(c2ccc(Cl)cc2)C1 [Venetoclax] (first compound max 10 µM, 7x7, partner max 1 µM)', -0.0399),
  ('CC1(C)CCC(CN2CCN(c3ccc(C(=O)NS(=O)(=O)c4ccc(NCC5CCOCC5)c([N+](=O)[O-])c4)c(Oc4cnc5[nH]ccc5c4)c3)CC2)=C(c2ccc(Cl)cc2)C1 [Venetoclax] + CS(=O)(=O)CCNCc1ccc(-c2ccc3ncnc(Nc4ccc(OCc5cccc(F)c5)c(Cl)c4)c3c2)o1 [Lapatinib] (first compound max 1 µM, 7x7, partner max 10 µM)', -0.0347);

Asked: Need Bliss excess of CN(CCO)CC[C@H](CSc1ccccc1)Nc1ccc(S(=O)(=O)NC(=O)c2ccc(N3CCC([C@@H](O)c4ccccc4-c4ccc(Cl)cc4)CC3)cc2)cc1S(=O)(=O)C(F)(F)F [AZD4320] + C=CCn1c(=O)c2cnc(Nc3ccc(N4CCN(C)CC4)cc3)nc2n1-c1cccc(C(C)(C)O)n1 [AZD1775] (first compound max 1 µM, partner max 1 µM) , thanks.
Given back: 0.0906

Asked: Need Bliss excess of Cc1cc2ncnn2cc1Nc1ncc2c(n1)n(C1CCOCC1)c(=O)n2C [AZD7648] + CN(C)CCCOc1ccc(-c2ccc3ncc4c(c3c2)n(C2CCOCC2)c(=O)n4C)cn1 [AZD0156] (first compound max 10 µM, 7x7, partner max 1 µM) , thanks.
Given back: -0.0274

Asked: Need Bliss excess of N#Cc1cnc(Nc2cc(NC[C@H]3CNCCO3)c(C(F)(F)F)cn2)cn1 [SRA737] + CCc1c2c(nc3ccc(O)cc13)-c1cc3c(c(=O)n1C2)COC(=O)[C@]3(O)CC [SN-38] (first compound max 10 µM, 7x7, partner max 0.3 µM) , thanks.
Given back: -0.0755

* * *

# Test system: HCC38 (Breast Carcinoma)
# Protocol Description: combination Emax (second highest fraction inhibited in the dose matrix, 72 h); higher = more inhibition; extreme values may be limits of the assay
Recorded combination Emax, one value per entry.
In your answer, state the number alone without any accompanying words.

Asked: Need combination Emax of NC1(C(=O)N[C@@H](CCO)c2ccc(Cl)cc2)CCN(c2ncnc3[nH]ccc23)CC1 [Capivasertib] + COc1nnc2ccc(N3CCC(c4ccc(OCCN5CCN(C)C(=O)[C@H]5C)cc4)CC3)nn12 [AZD5153] (first compound max 10 µM, 7x7, partner max 1 µM) , thanks.
Given back: 0.461

Asked: Need combination Emax of C=CCn1c(=O)c2cnc(Nc3ccc(N4CCN(C)CC4)cc3)nc2n1-c1cccc(C(C)(C)O)n1 [AZD1775] + CCc1c2c(nc3ccc(O)cc13)-c1cc3c(c(=O)n1C2)COC(=O)[C@]3(O)CC [SN-38] (first compound max 1 µM, partner max 0.3 µM) , thanks.
Given back: 0.751
